Ref: ChEMBL document CHEMBL1201862

# System: HL-60
# assay_summary: NCI tumour cell line growth inhibition, 48 h
Calls of active or inactive are those of the source. Cut-off read from the data, not from the text of the source: active = GI50 up to about 1.1 µM and inactive = higher.
Would you mind answering with one of these outcomes? active, inactive

Previously resolved entries follow.
{"molecule": "Clc1nc(Cl)c(Cl)c(-c2ccccc2)n1", "cat": "inactive"}
{"molecule": "NS(=O)(=O)c1nnc(/N=C(/CCC(=O)O)C(=O)O)s1", "cat": "inactive"}
{"molecule": "Cn1c(=O)[nH]n(-c2ccc3ccccc3c2)c1=O", "cat": "inactive"}
{"molecule": "CCOC(=O)C1(C/C=C/CCl)CCCC1=O (stereo unspecified)", "cat": "inactive"}
{"molecule": "N/C(=N\\N=C\\c1c[nH]c2ccccc12)Nc1ccccc1", "cat": "active"}

Problem: Tell me the recorded outcome of this test for "Cc1[nH]nc2c1C(=O)C=C(N(CCO)c1ccccc1)C2=O" .
Solution: inactive

Problem: Tell me the recorded outcome of this test for O=C1/C(=C/c2ccc([N+](=O)[O-])cc2)C(=O)N(c2ccccc2)C1c1ccccc1 (stereo unspecified) .
Solution: inactive

Problem: Tell me the recorded outcome of this test for "O=C(N/N=C\c1cccc2ccccc12)Nc1ccc([N+](=O)[O-])cc1" .
Solution: inactive

Problem: Tell me the recorded outcome of this test for "CNC(=O)N1CN(c2ccccc2)C2(CCN(CCCC(=O)c3ccc(F)cc3)CC2)C1=O" .
Solution: inactive

Problem: Tell me the recorded outcome of this test for "CN(N)c1nc(N)c(C#N)c(C#N)c1C#N" .
Solution: inactive

Problem: Tell me the recorded outcome of this test for C1=CC2C=CC(C=C1)P2c1ccccc1 (stereo unspecified) .
Solution: inactive

---

# Test system: SN12C
# assay_summary: NCI tumour cell line growth inhibition, 48 h
Active and inactive are the calls of the source. Rule as the data show it: active = GI50 up to about 1.1 µM and inactive = higher.
Would you mind answering with one of these outcomes? y (active), n (inactive)

Previously resolved entries follow.
{"molecule": "C/C(=N\\O)C1CC(CC(=O)O)C1(C)C (stereo unspecified)", "cat": "n"}
{"molecule": "CC(=O)O[C@H]1C[C@@H](OC(C)=O)[C@@](C)(O)[C@@H]2[C@@H](OC(C)=O)[C@@]3(O)[C@H](/C=C(/CO)[C@H]4O[C@H]4[C@@H](OC(C)=O)[C@@]12C)OC(=O)[C@@H]3C", "cat": "n"}
{"molecule": "Cc1c(C(Cc2ccccc2N(C)C(=O)/C=C\\C(=O)O)c2c[nH]c3ccccc23)c2ccccc2n1C (stereo unspecified)", "cat": "n"}

Problem: Tell me the recorded outcome of this test for "COc1cc2nc(-c3ccccc3)cc(O)c2c(OC)c1OC" .
Solution: n

Problem: Tell me the recorded outcome of this test for "CN(C)/N=N/c1ccc(C(N)=O)cc1" .
Solution: n

Problem: Tell me the recorded outcome of this test for O=C(O)C(Cc1ccc(O)cn1)NC(=O)C(F)(F)F (stereo unspecified) .
Solution: n

Problem: Tell me the recorded outcome of this test for "COc1c(-c2nc3ccc(N4CCN(C)CC4)nc3[nH]2)cc(OC)c2[nH]c(CO)nc12" .
Solution: n

Problem: Tell me the recorded outcome of this test for "CC(C)=CCC[C@@H](C)/C=C/C=C(\C)C(=O)CC[C@@H]1CC[N@+]2(C)CCCC[C@H]12" .
Solution: n

Problem: Tell me the recorded outcome of this test for COc1ccc(OC)c(Cc2cnc3nc(N)nc(N)c3c2C)c1 [PIRITREXIM ISETHIONATE] .
Solution: y

Problem: Tell me the recorded outcome of this test for CC(=O)OCC1OC(O[C@@H]2C[C@H]3C(C)(C)[C@H](OC(C)=O)CC[C@]3(C)[C@H]3CC[C@@]45C[C@H](O)C[C@H](C)[C@@H]4CC=C5[C@@]32C)C(O)C(O)C1O (stereo partly specified) .
Solution: n

Problem: Tell me the recorded outcome of this test for "CC1(C)CC(=O)C(C(=O)C(=O)NC2=C(Cl)C(=O)c3ccccc3C2=O)C(=O)C1" .
Solution: n

Problem: Tell me the recorded outcome of this test for "CC#CCCN(CC#N)Cc1ccccc1" .
Solution: n
